targetDesc: Ubiquitin carboxyl-terminal hydrolase 8 (Homo sapiens)
measurementProtocol: Ubiquitin-specific protease 8 inhibitors, concentration-effect, biochemical, validation of initial actives (AID 1645862);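 further: potency reflects inhibition of USP8 cleavage of a ubiquitin rhodamine substrate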
studyConditions: recombinant USP8 deubiquitinase activity assay
The source made the active and inactive calls. How the calls were made is not given here.
Your response should consist of one outcome taken from active, inactive

QUERY: Hey, what did the test say about CCOc1ccc2[nH]c3c(=O)n(CCc4ccc(OC)cc4)cnc3c2c1 ?
RESULT: inactive

====

targetDesc: Ubiquitin carboxyl-terminal hydrolase 8 (Homo sapiens) (UniProt P40818)
Sequence (P40818 whole entry, looked up): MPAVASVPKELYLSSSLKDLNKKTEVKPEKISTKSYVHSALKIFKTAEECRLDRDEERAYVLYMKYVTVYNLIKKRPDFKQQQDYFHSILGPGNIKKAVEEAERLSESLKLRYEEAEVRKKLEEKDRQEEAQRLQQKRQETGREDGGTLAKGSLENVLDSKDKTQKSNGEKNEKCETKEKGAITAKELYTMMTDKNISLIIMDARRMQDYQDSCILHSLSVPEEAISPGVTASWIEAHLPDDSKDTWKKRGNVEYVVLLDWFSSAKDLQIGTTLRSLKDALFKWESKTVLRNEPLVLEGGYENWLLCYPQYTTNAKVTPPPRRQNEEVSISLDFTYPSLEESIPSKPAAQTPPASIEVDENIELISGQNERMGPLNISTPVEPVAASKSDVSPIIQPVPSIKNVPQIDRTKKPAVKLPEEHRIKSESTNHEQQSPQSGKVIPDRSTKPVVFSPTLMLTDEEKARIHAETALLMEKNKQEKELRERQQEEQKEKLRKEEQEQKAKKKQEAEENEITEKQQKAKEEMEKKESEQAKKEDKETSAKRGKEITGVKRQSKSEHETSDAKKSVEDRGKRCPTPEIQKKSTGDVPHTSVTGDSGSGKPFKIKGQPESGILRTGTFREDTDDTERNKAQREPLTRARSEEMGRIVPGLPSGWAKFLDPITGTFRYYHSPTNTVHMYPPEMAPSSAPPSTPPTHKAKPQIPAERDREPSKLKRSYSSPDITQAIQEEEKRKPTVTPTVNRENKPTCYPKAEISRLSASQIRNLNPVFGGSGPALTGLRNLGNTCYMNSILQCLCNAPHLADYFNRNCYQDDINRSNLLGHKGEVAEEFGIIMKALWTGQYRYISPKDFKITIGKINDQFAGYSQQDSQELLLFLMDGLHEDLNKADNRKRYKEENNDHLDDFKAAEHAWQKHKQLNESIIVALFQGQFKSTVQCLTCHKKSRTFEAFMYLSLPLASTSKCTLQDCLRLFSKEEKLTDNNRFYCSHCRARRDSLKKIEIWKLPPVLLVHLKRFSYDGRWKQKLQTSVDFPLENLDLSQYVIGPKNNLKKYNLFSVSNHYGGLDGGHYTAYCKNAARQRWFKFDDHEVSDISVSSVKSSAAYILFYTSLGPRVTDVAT
measurementProtocol: Ubiquitin-specific protease 8 inhibitors, concentration-effect, biochemical, validation of initial actives (AID 1645862);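 further: potency reflects inhibition of USP8 cleavage of a ubiquitin rhodamine substrate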
studyConditions: recombinant USP8 deubiquitinase activity assay
Calls of active or inactive are those of the source. No rule for the calls is given here.
Hi there, use one of these labels in your reply, thanks! active, inactive

Record excerpt, results attached:
CSc1ccc(C(=O)Nc2nc(-c3ccncc3)cs2)cc1 : inactive
O=C(COc1ccc(Cl)cc1)Nc1noc(-c2cccs2)n1 : inactive
Cc1cccc(NC(=O)Nc2ccccc2OCc2cc(=O)n3cccc(C)c3n2)c1 : inactive
O=C(Nc1ccc(Cn2cnc(-c3nc(-c4ccccc4)no3)c2)cc1)c1ccccc1F : inactive
O=C1c2ccccc2-c2nnc(-c3ccncc3)cc21 : active

QUERY: Returns: the outcome recorded for Cc1ccc(NC(=O)Cc2sc(Nc3ccc(C)cc3)nc2O)cc1 in this assay.
RESULT: inactive

QUERY: Please give the result for O=C(Cn1cc(C(=O)c2ccccc2)c(=O)c2cc(F)ccc21)Nc1ccc2c(c1)OCCO2 too.
RESULT: inactive

QUERY: And what about the compound CCc1ccccc1NC(=O)CN1C(=O)C2CCCC2=Nc2ccccc21 (stereo unspecified) ?
RESULT: inactive

====

targetDesc: UniProt:P40818
measurementProtocol: Ubiquitin-specific protease 8 inhibitors, concentration-effect, biochemical, validation of initial actives (AID 1645862);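 further: potency reflects inhibition of USP8 cleavage of a ubiquitin rhodamine substrate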
studyConditions: recombinant USP8 deubiquitinase activity assay
Activity calls are given as the source filed them. How the calls were made is not given here.
Log the outcome using a class from YES for active, NO for inactive

CC(=O)Nc1ccc(S(=O)(=O)NCc2ccc(C(=O)NCCc3ccc(Cl)cc3)cc2)cc1 : NO

QUERY: Recorded call for Cc1ccc(NC(=O)Cn2cc(C(=O)c3ccccc3)c(=O)c3cc(C)ccc32)cc1 ?
RESULT: YES

QUERY: Now the same for CN(C)c1ccc(CNC(=O)c2nnc(C(=O)Nc3ccccc3)s2)cc1
RESULT: NO

QUERY: Can you handle COc1ccc(C2(c3nnc(C(C)Oc4ccc(F)cc4)o3)CCOCC2)cc1 (stereo not given) next?
RESULT: NO

QUERY: Subsequent entry: O=c1c2cc(Br)ccc2[nH]c(=S)n1Cc1cccnc1
RESULT: NO

====

targetDesc: Ubiquitin carboxyl-terminal hydrolase 8 (Homo sapiens)
measurementProtocol: Ubiquitin-specific protease 8 inhibitors, concentration-effect, biochemical, validation of initial actives (AID 1645862);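 further: potency reflects inhibition of USP8 cleavage of a ubiquitin rhodamine substrate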
studyConditions: recombinant USP8 deubiquitinase activity assay
The source made the active and inactive calls. The rule behind the calls is not given here.
The reply should name one outcome from true (1) = active, false (0) = inactive

QUERY: Recorded test call requested for COc1ccc(/C=C/C(=O)Nc2cccc(S(=O)(=O)Nc3ccccc3Cl)c2)c(OC)c1
RESULT: false (0)

QUERY: What do we get for Cc1c(C(=O)NCc2cccc(Br)c2)oc2c1-c1[nH]ncc1CC2 ?
RESULT: false (0)

====

// values below are reported IC50
targetDesc: Ubiquitin carboxyl-terminal hydrolase 8 (Homo sapiens) (UniProt P40818)
measurementProtocol: Ubiquitin-specific protease 8 inhibitors, concentration-effect, biochemical, validation of initial actives (AID 1645862);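 further: potency reflects inhibition of USP8 cleavage of a ubiquitin rhodamine substrate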
studyConditions: recombinant USP8 deubiquitinase activity assay
Activity calls are given as the source filed them. No rule for the calls is given here.

O=C(O)c1ccccc1C(=O)Nc1ccc(SC(C(=O)Nc2ccccc2Cl)c2ccccc2)cc1 (centres undefined) : > 40 µM (inactive)
CC(C)c1ccc(NC(=O)COC(=O)c2ccc(NS(=O)(=O)c3ccc4c(c3)OCCO4)cc2)cc1 : > 40 µM (inactive)
N#Cc1ccccc1Cn1c(=O)n(CCCC(=O)NCc2ccc(F)cc2)c(=O)c2ccccc21 : > 40 µM (inactive)
C/C(=C\Cc1c(O)cc(C)c(C=O)c1O)CC[C@@]1(C)[C@H](C)CCC(=O)[C@@H]1C : > 40 µM (inactive)
Cc1cccc(C)c1NC(=O)CN1C(=O)CC(c2ccccc2)=Nc2ccccc21 : > 40 µM (inactive)

QUERY: Can you look up IC50 on Ubiquitin carboxyl-terminal hydrolase 8 (Homo sapiens) (UniProt P40818) for O=C(Cn1c(-c2ccccc2)ncc(C(=O)NC2CC2)c1=O)Nc1ccccc1 ?
RESULT: > 40 µM (inactive)

QUERY: Can you check COc1cccc(N2CCCN(C(=O)c3ccc4nc(C)[nH]c4c3)CC2)c1 next?
RESULT: > 40 µM (inactive)

QUERY: Now this one: CC(=O)N1CCc2cc(S(=O)(=O)NC(Cc3ccccc3)C(=O)Nc3cccc(Cl)c3C)ccc21 (centres undefined)
RESULT: > 40 µM (inactive)

QUERY: Also check O=C1c2c(O)cccc2C2(Oc3cccc4cccc(c34)O2)C2OC12 (centres undefined)
RESULT: 7.76 µM
